Source listed as patent US20220096516A1.

Test system: LHPP gene
method-notes: High-throughput screening of saRNAs targeting LHPP promoter: LHPP mRNA by one-step RT-qPCR in Huh7 cells
Type: cell-based, human
protocol-conditions: 10 nM saRNA, 72 hours, relative to control (Mock)
Procedure: Human liver cancer cell line Huh7 was cultured in DMEM medium (Gibco), containing 10% of calf serum (Sigma-Aldrich) and 1% of penicillin/streptomycin (Gibco). The cells were cultured at 5% CO2 and 37° C. According to the instructions provided by the manufacturer, RNAiMax (Invitrogen, Carlsbad, Calif.) was used to transfect small activating RNAs at a concentration of 10 nM (unless otherwise specified). […]
d = 2'-deoxy (DNA); r = 2'-OH (RNA)
Below, each entry is listed alongside its reported Fold of changes in relative LHPP mRNA expression level.
Expressed in fold, but write only the number.

Solved entries:
RAG7-710: saRNA duplex; sense GUUUUCUUCUCAGCCCAGGTT (SEQ ID NO: 122), antisense CCUGGGCUGAGAAGAAAACTT (SEQ ID NO: 286) (sugars from the 5' end r19 d2, backbone not given here)    1.18
RAG7-706: saRNA duplex; sense UCUUCUCAGCCCAGGUCCUTT (SEQ ID NO: 15), antisense AGGACCUGGGCUGAGAAGATT (SEQ ID NO: 179) (sugars from the 5' end r19 d2, backbone not given here)    1.63
RAG7-879: saRNA duplex; sense GUAAAGUGUUCUCGUUUCUTT (SEQ ID NO: 40), antisense AGAAACGAGAACACUUUACTT (SEQ ID NO: 204) (sugars from the 5' end r19 d2, backbone not given here)    1.44

// returns reported Fold of changes in relative LHPP mRNA expression level for input RAG7-140: saRNA duplex; sense UUUUCCUGCUCUUUGUCCGTT (SEQ ID NO: 74), antisense CGGACAAAGAGCAGGAAAATT (SEQ ID NO: 238) (sugars from the 5' end r19 d2, backbone not given here)
1.28
